molecular target: Tubulin; assay: Binding affinity to CM5-chip immobilized tubulin (unknown origin) assessed as dissociation constant by SPR analysis; assay type: protein-complex assay, Homo sapiens
Known Kd of a selection of compounds

# chemical_smiles, system_under_test, Kd (µM)
measured = [
    ("COc1ccc2c(c1)NC(=O)CN2c1nc(Cl)nc2ccsc12", "Tubulin", 24.4),
    ("COc1ccc(N(C)c2nc(Cl)nc3ccsc23)cc1", "Tubulin", 29.7),
]

----------
system: SK-OV-3; assay: Antiproliferative activity against human SK-OV-3 cells incubated for 48 hrs by CCK8 assay; type: functional, cell-based; conditions: SK-OV-3, 48 h
pIC50: −log10 of the molar value.
Known pIC50 of a selection of molecules

# chemical_smiles, system_under_test, comparison_symbol, pIC50
measured = [
    ("COc1ccc(N(C)c2nc(NC3CC3)nc3ccsc23)cc1", "SK-OV-3", "=", 7.60),
    ("CN(c1ccc(C(F)F)cc1)c1nc(Cl)nc2ccsc12", "SK-OV-3", "<", 6.00),
    ("CN(c1ccccc1)c1nc(Cl)nc2ccsc12", "SK-OV-3", "<", 6.00),
    ("COc1ccc(N(C)c2nc(Cl)nc3ccccc23)cc1", "SK-OV-3", "=", 9.11),
    ("COc1ccc(Nc2nc(Cl)nc3ccsc23)cc1", "SK-OV-3", "<", 6.00),
    ("COc1ccc(N(C)c2nc(NC3CCCC3)nc3ccsc23)cc1", "SK-OV-3", "=", 6.13),
    ("COc1ccc(N(C)c2nc(Cl)nc3ccoc23)cc1", "SK-OV-3", "=", 8.54),
    ("COc1ccc(N(C)c2nc(N3CCN(C)CC3)nc3ccsc23)cc1", "SK-OV-3", "<", 6.00),
    ("CN(c1ccc2c(ccn2C)c1)c1nc(Cl)nc2ccsc12", "SK-OV-3", "=", 8.91),
    ("COc1ccc2c(c1)CCCN2c1nc(Cl)nc2ccsc12", "SK-OV-3", "=", 8.57),
    ("CCNc1nc(N(C)c2ccc(OC)cc2)c2sccc2n1", "SK-OV-3", "=", 7.28),
    ("COc1ccc(N(C)c2nc(Cl)nc3ccsc23)cc1F", "SK-OV-3", "=", 8.69),
]
